Ref: PubChem BioAssay (NCI)

Test: NCI Yeast Anticancer Drug Screen. Data for the cln2 rad14 strain (AID 165);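 also: 0% = growth equal to vehicle treated cultures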
Conditions: S. cerevisiae cln2 rad14 strain, at 50.0 µM, active compounds read high
This is part of a sample that, as a whole, favours compounds with a hit. Of some 79,000 tested, about 15% had one in any assay. Activity calls are given as the source filed them. Rule as the data show it: active = growth inhibition above about 70%; inactive = the rest.
parameter_measured: growth inhibition

These recorded examples may help you get a feel for the data.
compound	growth inhibition
COc1cc(-c2cc(=O)c3c(O)c(OC)c(OC)c(OC)c3o2)ccc1O	28.4% (inactive)
CN=Cc1c(O)ccc2ccccc12.[Cu+2]	6.45% (inactive)

For each of the compounds below, state growth inhibition.
1. CC(C)=NNC(=O)c1ccc([N+](=O)[O-])cc1
2. CCC1(c2ccccc2)CCCC/C1=N/NC(N)=O (configuration not stated)
3. O=c1c2c(oc3cc(OCC4CO4)ccc13)CCC2 (configuration not stated)
4. C=CC1CC1(Cl)Cl (configuration not stated)
5. COC(=O)c1c2c(cc3c1CCC3)CCC2
6. CC(=O)Oc1c(C)cc(C(=O)CO)cc1C

Output line:
5.1% (inactive)
2.2% (inactive)
-24.9% (inactive)
-50.2% (inactive)
14.8% (inactive)
6.75% (inactive)

List growth inhibition for every entry below, keeping the order given.
1. O=C1c2ccccc2C2(O)NC(=S)N(c3ccccc3)C12O (configuration not stated)
2. O=C(OCC1OC(OC(=O)c2ccc([N+](=O)[O-])cc2)CC(OC(=O)c2ccc([N+](=O)[O-])cc2)C1OC(=O)c1ccc([N+](=O)[O-])cc1)c1ccc([N+](=O)[O-])cc1 (configuration not stated)
3. CC(=O)Nc1ccc2c(c1)C(=O)c1ccccc1-2
4. COC(=O)C1(C)C=CC(=O)C2(C)C1C(O)C1OC3CC(c4ccoc4)C(C)=C3C1(C)C2CC(=O)O (configuration not stated)

Output line:
1. 15.4% (inactive)
2. -7.35% (inactive)
3. 26.3% (inactive)
4. 12.4% (inactive)
